target_or_test_system: HIV-1 93UG077 envelope glycoprotein (Env) (HIV-1)
assay_text: cell-based or functional assay
metric_name: IC50 neutralization

Some binders with recorded IC50 neutralization:
# binder, result
rows = [
    ("PGT-136 (antibody, V domains shown) VH: QLQLQESGPGLVKPSETLSLTCTVSGGSMRGTDWGENDFHYGWIRQSSAKGLEWIGSIHWRGRTTHYKTSFRSRATLSIDTSNNRFSLTFSFVTAADTAVYYCARHKYHDIFRVVPVAGWFDPWGQGLLVTVSS VL: EIVMTQSPPTLSVSPGETATLSCRASQNVKNNLAWYQLKPGQAPRLLIFDASSRAGGIPDRFSGSGYGTDFTLTVNSVQSEDFGDYFCQQYEEWPRTFGQGTKVDIK", "> 10 µg/mL"),
    ("PGT-135 (antibody, V domains shown) VH: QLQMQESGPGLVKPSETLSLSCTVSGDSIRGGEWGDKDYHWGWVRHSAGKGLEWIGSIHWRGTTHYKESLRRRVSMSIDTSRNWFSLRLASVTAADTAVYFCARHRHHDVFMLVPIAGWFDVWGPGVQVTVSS VL: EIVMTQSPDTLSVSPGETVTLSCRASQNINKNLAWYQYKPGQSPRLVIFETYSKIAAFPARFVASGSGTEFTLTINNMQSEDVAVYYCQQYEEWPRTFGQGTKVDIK", "> 10 µg/mL"),
]

Now examine the next entry.
Q) Name the reported IC50 neutralization value associated with the binder PGT-130 (antibody, V domains shown) VH: QVQLQESGPGLVKPAETLSLTCSVSGESINTGHYYWGWVRQVPGKGLEWIGHIHYTTAVLHNPSLKSRLTIKIYTLRNQITLRLSNVTAADTAVYHCVRSGGDILYYYEWQKPHWFSPWGPGIHVTVSS VL: QSALTQPPSASGSLGQSVTISCNGTSSDIGGWNFVSWYQQFPGRAPRLIIFEVNKRPSGVPGRFSGSKSGNSASLTVSGLQSDDEGQYFCSSLFGRWDVVFGGGTKLTVL
A) > 10 µg/mL
